biological target: Serine-threonine protein phosphatase 2A regulatory subunit (Gallus gallus); assay: Inhibitory concentration required against protein phosphatase 2A using pNPP assay
Sequence (Q8AWE3 whole entry): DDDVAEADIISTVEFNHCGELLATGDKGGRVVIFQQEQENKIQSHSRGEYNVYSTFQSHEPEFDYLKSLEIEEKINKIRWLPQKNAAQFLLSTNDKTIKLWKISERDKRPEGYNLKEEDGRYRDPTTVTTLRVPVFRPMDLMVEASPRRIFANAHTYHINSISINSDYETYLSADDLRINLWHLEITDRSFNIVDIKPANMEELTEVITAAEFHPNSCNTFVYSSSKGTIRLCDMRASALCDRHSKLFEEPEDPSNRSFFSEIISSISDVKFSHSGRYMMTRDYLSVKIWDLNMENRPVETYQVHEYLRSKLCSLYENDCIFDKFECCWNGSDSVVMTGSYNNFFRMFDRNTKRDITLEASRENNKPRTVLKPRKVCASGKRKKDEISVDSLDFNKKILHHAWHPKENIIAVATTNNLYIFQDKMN
Attribute Measured: IC50 (µM)
Form entry: value (µM) — number only.

Problem: What value of IC50 on Serine-threonine protein phosphatase 2A regulatory subunit (Gallus gallus) does CO[C@@H](Cc1ccccc1)[C@@H](C)/C=C(C)/C=C/[C@H](NC(C)=O)[C@H](C)C(=O)N[C@H](CCC(=O)N(C)C)C(=O)O have?
Solution: 20

Problem: I'm curious: which IC50 was measured for C=C(C(=O)N[C@H](C)C(=O)N[C@@H](CC(C)C)C(=O)O)N(C)C(=O)CC[C@@H](NC(=O)[C@@H](C)[C@H](/C=C/C(C)=C/[C@H](C)[C@H](Cc1ccccc1)OC)NC(C)=O)C(=O)O tested on Serine-threonine protein phosphatase 2A regulatory subunit (Gallus gallus)?
Solution: 16

Problem: GET /values?readout=IC50&system=Serine-threonine protein phosphatase 2A regulatory subunit (Gallus gallus)&item= CO[C@@H](Cc1ccccc1)[C@@H](C)/C=C(C)/C=C/[C@H](N)[C@H](C)C(=O)N[C@H](CCC(=O)N(C)CC(=O)N[C@H](C)C(=O)O)C(=O)O
Solution: 270

Problem: Request body: readout IC50, system Serine-threonine protein phosphatase 2A regulatory subunit (Gallus gallus), query CO[C@@H](Cc1ccccc1)[C@@H](C)/C=C(C)/C=C/[C@H](NC(C)=O)[C@H](C)C(=O)N[C@H](CCC(=O)N(C)CC(=O)N[C@H](C)C(=O)O)C(=O)O . Return the value.
Solution: 135

Problem: Param readout = IC50; param system = Serine-threonine protein phosphatase 2A regulatory subunit (Gallus gallus); param query = CO[C@@H](Cc1ccccc1)[C@@H](C)/C=C(C)/C=C/[C@H](NC(C)=O)[C@H](C)C(=O)N[C@H](CCC(=O)N(C)CC(=O)N[C@H](C)C(=O)N[C@@H](CC(C)C)C(=O)O)C(=O)O ; response: value
Solution: 17
